Known pEC50 of a selection of binders
target: T1, recombinant human VEGF165 (human, UniProt P15692-4 27-191, biotinylated in the competition assays); assay: binding ELISA, coated rhVEGF165
T1 construct: Bought protein; also called hVEGF165; rhVEGF165
T1 sequence (P15692 other isoform, or with tags, fused parts or gaps): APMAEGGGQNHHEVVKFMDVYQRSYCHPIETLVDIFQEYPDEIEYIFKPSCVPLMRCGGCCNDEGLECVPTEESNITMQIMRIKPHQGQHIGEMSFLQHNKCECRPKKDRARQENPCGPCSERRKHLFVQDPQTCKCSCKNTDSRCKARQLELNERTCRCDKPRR
Bear in mind: pEC50 is minus log10 of a mol/L concentration; give just that figure.

| Binder | pEC50 |
| --- | --- |
| VEGFBII025 (VHH, not shown: small tags and cut ends, Bivalent anti-VEGF VHH; also called VEGFBII10E07-40GS-23B04) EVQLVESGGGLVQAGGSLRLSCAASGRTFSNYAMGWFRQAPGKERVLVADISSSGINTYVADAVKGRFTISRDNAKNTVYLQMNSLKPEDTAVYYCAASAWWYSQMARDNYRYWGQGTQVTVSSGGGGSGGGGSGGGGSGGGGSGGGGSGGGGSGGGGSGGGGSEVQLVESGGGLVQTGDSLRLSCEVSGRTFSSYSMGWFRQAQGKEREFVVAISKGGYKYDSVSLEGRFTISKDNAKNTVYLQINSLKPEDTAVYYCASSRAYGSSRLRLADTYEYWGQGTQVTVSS | 9.18 |
| VEGFBII010 (VHH, not shown: small tags and cut ends, Homodimeric bivalent anti-VEGF VHH; also called VEGFBII23B04-35GS-23B04) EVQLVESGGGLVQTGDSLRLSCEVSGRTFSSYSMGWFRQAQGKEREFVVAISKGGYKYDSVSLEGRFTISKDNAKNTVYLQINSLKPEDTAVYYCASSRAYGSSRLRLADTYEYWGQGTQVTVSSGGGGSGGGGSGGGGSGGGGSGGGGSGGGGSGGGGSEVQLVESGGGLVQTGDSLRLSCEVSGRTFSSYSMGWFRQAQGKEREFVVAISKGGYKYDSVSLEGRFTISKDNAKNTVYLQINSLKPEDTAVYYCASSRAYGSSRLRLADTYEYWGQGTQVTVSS | 9.37 |
| VEGFBII023 (VHH, not shown: small tags and cut ends, Bivalent anti-VEGF VHH; also called VEGFBII23B04-40GS-10E07) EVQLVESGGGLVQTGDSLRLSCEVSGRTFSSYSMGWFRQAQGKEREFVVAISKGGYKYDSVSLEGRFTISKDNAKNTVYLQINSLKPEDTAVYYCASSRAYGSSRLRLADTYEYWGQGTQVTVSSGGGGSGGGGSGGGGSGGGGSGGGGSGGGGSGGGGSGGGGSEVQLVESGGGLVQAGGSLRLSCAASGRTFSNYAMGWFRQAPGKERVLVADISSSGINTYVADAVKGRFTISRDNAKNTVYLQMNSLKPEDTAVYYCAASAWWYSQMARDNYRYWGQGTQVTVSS | 9.66 |
| VEGFBII021 (VHH, not shown: small tags and cut ends, Bivalent (heterodimeric) anti-VEGF VHH; also called VEGFBII23B04-40GS-5B05) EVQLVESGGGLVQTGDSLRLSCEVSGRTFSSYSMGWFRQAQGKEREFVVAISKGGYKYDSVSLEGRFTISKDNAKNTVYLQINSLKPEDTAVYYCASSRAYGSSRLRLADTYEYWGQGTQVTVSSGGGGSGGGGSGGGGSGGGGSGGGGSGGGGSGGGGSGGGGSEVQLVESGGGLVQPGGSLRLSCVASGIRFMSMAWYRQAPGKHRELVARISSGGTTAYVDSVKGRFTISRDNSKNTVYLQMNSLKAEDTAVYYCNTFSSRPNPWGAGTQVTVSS | 9.48 |
| VEGFBII022 (VHH, not shown: small tags and cut ends, Bivalent (heterodimeric) anti-VEGF VHH; also called VEGFBII23B04-9GS-5B05) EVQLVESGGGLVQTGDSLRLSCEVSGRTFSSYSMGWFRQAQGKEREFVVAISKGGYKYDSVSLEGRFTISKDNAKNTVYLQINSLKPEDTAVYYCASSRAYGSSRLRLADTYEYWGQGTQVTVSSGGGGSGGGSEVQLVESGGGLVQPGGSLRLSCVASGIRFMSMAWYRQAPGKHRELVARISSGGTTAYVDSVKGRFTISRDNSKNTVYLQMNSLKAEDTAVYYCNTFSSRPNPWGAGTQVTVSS | 9.65 |

Now for another entry.
Q. Could you tell me which pEC50 is on file for VEGFBII024 (VHH, not shown: small tags and cut ends, Bivalent anti-VEGF VHH; also called VEGFBII23B04-40GS-86H09) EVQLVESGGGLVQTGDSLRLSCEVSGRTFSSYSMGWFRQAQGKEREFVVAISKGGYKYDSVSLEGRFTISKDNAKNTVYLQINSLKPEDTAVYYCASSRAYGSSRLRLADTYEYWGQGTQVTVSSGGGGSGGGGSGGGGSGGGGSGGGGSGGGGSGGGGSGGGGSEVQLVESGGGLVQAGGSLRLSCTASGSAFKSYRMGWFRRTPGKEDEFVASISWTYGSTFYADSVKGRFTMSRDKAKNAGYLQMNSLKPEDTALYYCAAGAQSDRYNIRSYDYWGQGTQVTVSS ?
A. 9.49
